The measurements presented in this section are drawn from paper PMC11882969.

targetSystem: UniProt:P21554
Sequence (P21554 whole entry): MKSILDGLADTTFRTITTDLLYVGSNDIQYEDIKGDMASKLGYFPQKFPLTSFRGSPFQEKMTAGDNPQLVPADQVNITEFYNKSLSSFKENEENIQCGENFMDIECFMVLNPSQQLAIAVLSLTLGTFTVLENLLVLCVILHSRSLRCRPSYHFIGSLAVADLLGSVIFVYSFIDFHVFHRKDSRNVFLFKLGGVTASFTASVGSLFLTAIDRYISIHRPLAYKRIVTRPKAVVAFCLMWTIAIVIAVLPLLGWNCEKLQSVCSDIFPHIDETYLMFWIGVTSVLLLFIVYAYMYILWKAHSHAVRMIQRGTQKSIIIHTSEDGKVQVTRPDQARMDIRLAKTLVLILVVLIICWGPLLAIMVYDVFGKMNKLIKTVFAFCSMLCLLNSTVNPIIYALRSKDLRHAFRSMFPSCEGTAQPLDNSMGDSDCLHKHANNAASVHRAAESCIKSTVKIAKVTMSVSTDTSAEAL
procedureText: bioSensAll ebBRET signaling profiling, hCB1
Format: cell-based
Set-up: host or cells: HEK293SL cells, transient PEI transfection
testConditions: Gi1 biosensor; Log [Compound] (M) -5.89285
For each of the compounds below, state its Gi1 hCB1 response.

Provide reported Gi1 hCB1 response for each item, in the same order as listed.
1. Cc1cc(C(=O)N(C)C(c2ccccc2)c2ccco2)nn1-c1cccc(C(F)(F)F)c1 (stereo not shown) [‘1082]
2. Cc1cc(C(=O)N2CC3(CCC3)[C@@H]2[C@@H]2CCCO2)nn1-c1cccc(C(F)(F)F)c1 [‘3386]
3. Cc1cc(C(=O)NC(c2ccco2)c2ccco2)nn1-c1cccc(C(F)(F)F)c1 [‘1090]
4. Cc1cc(C(=O)NC(c2ccccc2)c2ccco2)nn1-c1cccc(C#N)c1 (stereo not shown) [‘12565]

1: 5.159; 2: -4.6; 3: 73.4668; 4: 42.849
